Tested on: CD2F1 mice, L1210 leukemia ip, survival T/C
Assay method text: NCI In Vivo Anticancer Drug Screen. Data for tumor model L1210 Leukemia (intraperitoneal) in CD2F1 (CDF1) mice
Condition label: endpoint: mean survival time; dose: 400.0 mg/kg/injection; schedule: Q01DX001 (ip); vehicle: Klucel (hydroxypropylcellulose) (HPC); higher = longer survival
Toxic doses and inconclusive results are not listed.
Readings of T/C for the listed compounds

Compound: O=C(O)C1C2CCC(C2)C1C(=O)O (stereo not drawn)
T/C: 96 % of control
--
Compound: CCOC(=O)C1(C(=O)OCC)C(C)CC2Nc3ccccc3C(=O)N21 (stereo not drawn)
T/C: 92 % of control
--
Compound: CC(C)(C)NO
T/C: 100 % of control
--
Compound: O=C1c2ccccc2C(=O)c2cc(S(=O)(=O)O)ccc21
T/C: 104 % of control
--
Compound: CC1(C)OC2C(CN=[N+]=[N-])OC(n3cnc4c(=O)[nH]c(N)nc43)C2O1 (stereo not drawn)
T/C: 97 % of control
--
Compound: CC(=O)OC(C)C(OC(C)=O)C(OC(C)=O)C(C=O)OC(C)=O (stereo not drawn)
T/C: 101 % of control
--
Compound: CCOC(=O)Nc1cc(NC/C(CCc2ccccc2)=N/O)c([N+](=O)[O-])c(N)n1
T/C: 90 % of control
--
Compound: CCOC(=O)C1=C(N)CCCC1
T/C: 96 % of control

* * *

The following compounds are listed with their measured T/C values.
Test system: CD2F1 mice, L1210 leukemia ip, survival T/C
Assay method text: NCI In Vivo Anticancer Drug Screen. Data for tumor model L1210 Leukemia (intraperitoneal) in CD2F1 (CDF1) mice
Condition label: endpoint: mean survival time; dose: 200.0 mg/kg/injection; schedule: Q04DX003 (ip); vehicle: saline with Tween-80; higher = longer survival
Toxic doses and inconclusive results are not listed.
Recorded metric: T/C

Compound: COC(=O)C(CC(C)C)NC(=O)c1ccccc1 (configuration not stated)
Result: 97 % of control
--
Compound: COC(=O)CC(NC(=O)C(F)(F)F)C(=O)OC (configuration not stated)
Result: 97 % of control
--
Compound: Cc1ccccc1S(=O)(=O)F
Result: 89 % of control
--
Compound: CCOC(=O)c1c[nH]c2cc(OC)ccc2c1=O
Result: 102 % of control
--
Compound: O=c1[nH]c2ccccc2c(=O)c2ccccc12
Result: 97 % of control
--
Compound: CC(=O)C1CCC2C3=CC=C4CC(OC(=O)c5ccccc5)CCC4(C)C3CCC12C (configuration not stated)
Result: 98 % of control
--
Compound: COC(=O)C1(C(=O)OC)CC1C(=O)c1ccccc1 (configuration not stated)
Result: 98 % of control

* * *

Tested on: CD2F1 mice, L1210 leukemia ip, survival T/C
Assay method text: NCI In Vivo Anticancer Drug Screen. Data for tumor model L1210 Leukemia (intraperitoneal) in CD2F1 (CDF1) mice
Condition label: endpoint: mean survival time; dose: 200.0 mg/kg/injection; schedule: Q04DX003 (ip); vehicle: saline with Tween-80; higher = longer survival
Inconclusive results and toxic doses are left out.
Here, each record is paired with measured T/C data.

Molecule: O=C(OC(CN1CCCCC1)CN1CCCc2ccccc21)C(O)C(O)C(O)(CO)C(=O)OC(CN1CCCCC1)CN1CCCc2ccccc21 (stereo not given)
Target desc: CD2F1 mice, L1210 leukemia ip, survival T/C
T/C: 91 % of control
//
Molecule: CC1(C)CCC(C)(C)c2c1ccc(O)c2Sc1c(O)ccc2c1C(C)(C)CCC2(C)C
Target desc: CD2F1 mice, L1210 leukemia ip, survival T/C
T/C: 97 % of control
//
Molecule: COC(=O)C1C2C(=O)NC(=O)C2C(c2ccc(-c3ccccc3)cc2)N1C1CCCCC1 (stereo not given)
Target desc: CD2F1 mice, L1210 leukemia ip, survival T/C
T/C: 100 % of control
//
Molecule: C(=C1c2ccccc2-c2ccccc21)c1cccnc1
Target desc: CD2F1 mice, L1210 leukemia ip, survival T/C
T/C: 101 % of control
//
Molecule: CN1C(=O)c2ccccc2C1(/N=C/c1ccccc1)c1ccccc1 (stereo not given)
Target desc: CD2F1 mice, L1210 leukemia ip, survival T/C
T/C: 96 % of control
//
Molecule: CCCCOC(=O)CCCCC(=O)OCCCC
Target desc: CD2F1 mice, L1210 leukemia ip, survival T/C
T/C: 98 % of control
//
Molecule: CCOC(=O)CSC(=S)NC1CCCCC1
Target desc: CD2F1 mice, L1210 leukemia ip, survival T/C
T/C: 98 % of control
//
Molecule: Cc1ccc(NC(=O)C(Cl)(Cl)Cl)cc1[N+](=O)[O-]
Target desc: CD2F1 mice, L1210 leukemia ip, survival T/C
T/C: 96 % of control
//
Molecule: COC(=O)Nc1cc2c3c(c1)CCCN3CCC2
Target desc: CD2F1 mice, L1210 leukemia ip, survival T/C
T/C: 93 % of control
//
Molecule: O=C1OCC/C1=C\c1cccc2ccccc12
Target desc: CD2F1 mice, L1210 leukemia ip, survival T/C
T/C: 96 % of control
//
Molecule: CC1(O)CC2CCCC1C2 (stereo not given)
Target desc: CD2F1 mice, L1210 leukemia ip, survival T/C
T/C: 90 % of control
//
Molecule: O=c1oc(/C=C/c2ccccc2)nc2cc(Cl)ccc12
Target desc: CD2F1 mice, L1210 leukemia ip, survival T/C
T/C: 92 % of control
//
Molecule: O=C(O)C1C2CCC(C2)C1C(=O)O (stereo not given)
Target desc: CD2F1 mice, L1210 leukemia ip, survival T/C
T/C: 102 % of control
//
Molecule: NC(=O)N/N=C/c1ccc([N+](=O)[O-])s1
Target desc: CD2F1 mice, L1210 leukemia ip, survival T/C
T/C: 99 % of control
//
Molecule: CC(Br)C(=O)NC(C)C(=O)O (stereo not given)
Target desc: CD2F1 mice, L1210 leukemia ip, survival T/C
T/C: 108 % of control
//
Molecule: CCC(CCC(C)C1CCC2C3CC=C4CC(OC(=O)CCC(=O)O)CCC4(C)C3CCC12C)C(C)C (stereo not given)
Target desc: CD2F1 mice, L1210 leukemia ip, survival T/C
T/C: 90 % of control
//
Molecule: c1ccc(CCN2CCC(CCc3c[nH]c4ccccc34)CC2)cc1
Target desc: CD2F1 mice, L1210 leukemia ip, survival T/C
T/C: 92 % of control
//
Molecule: COc1ccc(CCNC(=O)/C=C\C(=O)O)cc1OC
Target desc: CD2F1 mice, L1210 leukemia ip, survival T/C
T/C: 103 % of control
//
Molecule: Cc1ccnc([N+](=O)[O-])c1
Target desc: CD2F1 mice, L1210 leukemia ip, survival T/C
T/C: 96 % of control
//
Molecule: c1cc2c(cc1CNC1=NCCO1)OCO2
Target desc: CD2F1 mice, L1210 leukemia ip, survival T/C
T/C: 105 % of control
//
Molecule: CC(C)(C)NC(=O)CCC(CC(=O)NC(C)(C)C)OCc1ccccc1 (stereo not given)
Target desc: CD2F1 mice, L1210 leukemia ip, survival T/C
T/C: 106 % of control
//
Molecule: Cc1c2ccccc2c(CSCCC(N)C(=O)O)c2ccc3ccccc3c12 (stereo not given)
Target desc: CD2F1 mice, L1210 leukemia ip, survival T/C
T/C: 87 % of control
//
Molecule: CCOCCNCc1ccc(Cl)c(Cl)c1
Target desc: CD2F1 mice, L1210 leukemia ip, survival T/C
T/C: 94 % of control
//
Molecule: C1CN(SSN2CCOCC2)CCO1
Target desc: CD2F1 mice, L1210 leukemia ip, survival T/C
T/C: 92 % of control
//
Molecule: COc1cccc(C2=CCCCCC2)c1OC
Target desc: CD2F1 mice, L1210 leukemia ip, survival T/C
T/C: 101 % of control
